# TEST_SYSTEM: human insulin receptor isoform A (human, UniProt P06213-2 28-1370)
# Sequence (P06213 other isoform, or with tags, fused parts or gaps): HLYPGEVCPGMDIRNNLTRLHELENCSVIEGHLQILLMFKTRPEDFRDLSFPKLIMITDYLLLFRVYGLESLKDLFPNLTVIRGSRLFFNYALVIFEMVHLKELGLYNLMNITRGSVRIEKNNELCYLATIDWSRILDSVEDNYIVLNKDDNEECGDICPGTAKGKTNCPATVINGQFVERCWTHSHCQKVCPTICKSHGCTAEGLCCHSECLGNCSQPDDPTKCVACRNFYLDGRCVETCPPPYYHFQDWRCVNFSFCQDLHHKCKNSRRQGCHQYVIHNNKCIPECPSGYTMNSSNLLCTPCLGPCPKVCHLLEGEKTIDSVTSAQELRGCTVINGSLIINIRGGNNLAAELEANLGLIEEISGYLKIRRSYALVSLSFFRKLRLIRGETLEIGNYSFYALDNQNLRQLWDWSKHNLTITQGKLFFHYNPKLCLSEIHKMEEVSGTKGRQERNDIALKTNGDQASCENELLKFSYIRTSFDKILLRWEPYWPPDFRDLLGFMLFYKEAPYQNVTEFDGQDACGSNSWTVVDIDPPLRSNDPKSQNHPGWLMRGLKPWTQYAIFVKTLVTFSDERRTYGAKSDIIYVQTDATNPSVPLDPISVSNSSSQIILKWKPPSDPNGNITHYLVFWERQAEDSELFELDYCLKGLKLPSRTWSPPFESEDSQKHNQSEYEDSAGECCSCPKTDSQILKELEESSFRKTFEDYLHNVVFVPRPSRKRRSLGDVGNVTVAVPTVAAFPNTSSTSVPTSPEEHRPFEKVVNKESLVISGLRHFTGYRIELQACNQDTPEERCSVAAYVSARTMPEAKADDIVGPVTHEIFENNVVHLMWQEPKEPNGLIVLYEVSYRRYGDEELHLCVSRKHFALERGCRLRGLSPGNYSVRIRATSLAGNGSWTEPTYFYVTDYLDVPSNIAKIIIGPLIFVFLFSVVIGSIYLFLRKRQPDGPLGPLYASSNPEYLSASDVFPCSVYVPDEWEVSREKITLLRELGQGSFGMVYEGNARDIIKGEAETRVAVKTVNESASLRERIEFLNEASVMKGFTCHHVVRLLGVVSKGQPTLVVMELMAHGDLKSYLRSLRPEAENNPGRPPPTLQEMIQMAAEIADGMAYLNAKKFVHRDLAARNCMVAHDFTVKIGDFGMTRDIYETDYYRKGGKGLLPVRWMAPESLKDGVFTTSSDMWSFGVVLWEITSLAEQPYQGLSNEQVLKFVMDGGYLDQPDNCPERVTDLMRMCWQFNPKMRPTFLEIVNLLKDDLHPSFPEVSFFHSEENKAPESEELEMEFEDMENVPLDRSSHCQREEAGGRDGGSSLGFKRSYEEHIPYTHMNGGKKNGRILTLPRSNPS
# METHOD: cell-based or functional assay
MEASURE: hIR-A phosphorylation [EC50 nM] mean (nM)
Express it in nM; write the number only.

-- ask Indicate the recorded hIR-A phosphorylation [EC50 nM] mean value for this binder: scl-Fc fusion protein INS013 (Fc fusion) FVNQHLCGSHLVEALHLVCGERGFHYTPKTGSYPGGVGIVEQCCTSICSLSQLEDYCGGEAEDLQVGQVELGGGPGAGSLQPEGSLQGGPSVFLFPPKPKDTLMISRTPEVTCVVVDVSHEDPEVKFNWYVDGVEVHNAKTKPREEQYNSTYRVVSVLTVLHQDWLNGKEYKCKVSNKALPAPIEKTISKAKGQPREPQVYTLPPSRDELTKNQVSLTCLVKGFYPSDIAVEWESNGQPENNYKTTPPVLDSDGSFFLYSKLTVDKSRWQQGNVFSCSVMHEALHNHYTQKSLSLSPGGGGGSAESKYGPPCPPCPA
-- reply 5.58

-- ask Answer with the recorded hIR-A phosphorylation [EC50 nM] mean of scl-Fc fusion protein INS019 (Fc fusion) SFVNQHLCGSHLVEALELVCGERGFHYTPKTGSYPGGVGIVEQCCTSICSLSQLEDYCGGEAEDLQVGQVELGGGPGAGSLQPEGSLQGGPSVFLFPPKPKDTLMISRTPEVTCVVVDVSHEDPEVKFNWYVDGVEVHNAKTKPREEQYNSTYRVVSVLTVLHQDWLNGKEYKCKVSNKALPAPIEKTISKAKGQPREPQVYTLPPSRDELTKNQVSLTCLVKGFYPSDIAVEWESNGQPENNYKTTPPVLDSDGSFFLYSKLTVDKSRWQQGNVFSCSVMHEALHNHYTQKSLSLSPGGGGGSAESKYGPPCPPCPA only.
-- reply 666

-- ask State its hIR-A phosphorylation [EC50 nM] mean: scl-Fc fusion protein INS023 (Fc fusion) SFVNQHLCGSHLVEALELVCGERGFHYTPKTGSYPGGVGIVEQCCTSICSLSQLENYCGGEAEDLQVGQVELGGGPGAGSLQPEGSLQGGPSVFLFPPKPKDTLMISRTPEVTCVVVDVSHEDPEVKFNWYVDGVEVHNAKTKPREEQYNSTYRVVSVLTVLHQDWLNGKEYKCKVSNKALPAPIEKTISKAKGQPREPQVYTLPPSRDELTKNQVSLTCLVKGFYPSDIAVEWESNGQPENNYKTTPPVLDSDGSFFLYSKLTVDKSRWQQGNVFSCSVMHEALHNHYTQKSLSLSPGGGGGSAESKYGPPCPPCPA
-- reply 408

-- ask Using known records, supply hIR-A phosphorylation [EC50 nM] mean for scl-Fc fusion protein INS014 (Fc fusion) SFVNQHLCGSHLVEALHLVCGERGFHYTPKTGSYPGGVGIVEQCCTSICSLSQLEDYCGGEAEDLQVGQVELGGGPGAGSLQPEGSLQGGPSVFLFPPKPKDTLMISRTPEVTCVVVDVSHEDPEVKFNWYVDGVEVHNAKTKPREEQYNSTYRVVSVLTVLHQDWLNGKEYKCKVSNKALPAPIEKTISKAKGQPREPQVYTLPPSRDELTKNQVSLTCLVKGFYPSDIAVEWESNGQPENNYKTTPPVLDSDGSFFLYSKLTVDKSRWQQGNVFSCSVMHEALHNHYTQKSLSLSPGGGGGSAESKYGPPCPPCPA
-- reply 300

-- ask Report hIR-A phosphorylation [EC50 nM] mean, nothing else, for this binder: scl-Fc fusion protein INS020 (Fc fusion) FVNQHLCGSHLVEALELVCGERGFHYTPKTEEYPGDVGIVEQCCTSICSLSQLENYCGGEAEDLQVGQVELGGGPGAGSLQPEGSLQGGPSVFLFPPKPKDTLMISRTPEVTCVVVDVSHEDPEVKFNWYVDGVEVHNAKTKPREEQYNSTYRVVSVLTVLHQDWLNGKEYKCKVSNKALPAPIEKTISKAKGQPREPQVYTLPPSRDELTKNQVSLTCLVKGFYPSDIAVEWESNGQPENNYKTTPPVLDSDGSFFLYSKLTVDKSRWQQGNVFSCSVMHEALHNHYTQKSLSLSPGGGGGSAESKYGPPCPPCPA
-- reply 718

-- ask For scl-Fc fusion protein INS017 (Fc fusion) SFVNQHLCGSHLVEALHLVCGERGFHYTPKTGSYPGGVGIVEQCCTSICSLSQLENYCGGEAEDLQVGQVELGGGPGAGSLQPEGSLQGGPSVFLFPPKPKDTLMISRTPEVTCVVVDVSHEDPEVKFNWYVDGVEVHNAKTKPREEQYNSTYRVVSVLTVLHQDWLNGKEYKCKVSNKALPAPIEKTISKAKGQPREPQVYTLPPSRDELTKNQVSLTCLVKGFYPSDIAVEWESNGQPENNYKTTPPVLDSDGSFFLYSKLTVDKSRWQQGNVFSCSVMHEALHNHYTQKSLSLSPGGGGGSAESKYGPPCPPCPA , write its hIR-A phosphorylation [EC50 nM] mean.
-- reply 70.6

-- ask Please supply the value of reported hIR-A phosphorylation [EC50 nM] mean for the item scl-Fc fusion protein INS006 (Fc fusion) SFVNQHLCGSHLVEALELVCGERGFHYTDKTEEYPGDVGIVEQCCTSICSLEQLENYCGGEAEDLQVGQVELGGGPGAGSLQPEGSLQGGPSVFLFPPKPKDTLMISRTPEVTCVVVDVSHEDPEVKFNWYVDGVEVHNAKTKPREEQYNSTYRVVSVLTVLHQDWLNGKEYKCKVSNKALPAPIEKTISKAKGQPREPQVYTLPPSRDELTKNQVSLTCLVKGFYPSDIAVEWESNGQPENNYKTTPPVLDSDGSFFLYSKLTVDKSRWQQGNVFSCSVMHEALHNHYTQKSLSLSPGGGGGSAESKYGPPCPPCPA
-- reply 1110

-- ask For the binder scl-Fc fusion protein INS021 (Fc fusion) SFVNQHLCGSHLVEALELVCGERGFHYTPKTEEYPGDVGIVEQCCTSICSLSQLENYCGGEAEDLQVGQVELGGGPGAGSLQLALEGSLQGGPSVFLFPPKPKDTLMISRTPEVTCVVVDVSHEDPEVKFNWYVDGVEVHNAKTKPREEQYNSTYRVVSVLTVLHQDWLNGKEYKCKVSNKALPAPIEKTISKAKGQPREPQVYTLPPSRDELTKNQVSLTCLVKGFYPSDIAVEWESNGQPENNYKTTPPVLDSDGSFFLYSKLTVDKSRWQQGNVFSCSVMHEALHNHYTQKSLSLSPGGGGGSAESKYGPPCPPCPA , give its measured hIR-A phosphorylation [EC50 nM] mean value.
-- reply 447
